System: SK-MEL-28 melanoma
Test name: NCI tumour cell line growth inhibition, 48 h
Property: TGI

Example compounds with recorded TGI:
[[record]]
compound = "Cn1c(=O)c2c(nc3n2CC(=O)N3CCCCl)n(C)c1=O"
measurement_target = "SK-MEL-28 melanoma"
property = "TGI"
result = "> 100 µM"

[[record]]
compound = "CCN(CC)CC1CCCCN1CC(=O)N1c2ccccc2C(=O)Nc2cccnc21 (stereo not given)"
measurement_target = "SK-MEL-28 melanoma"
property = "TGI"
result = "> 100 µM"

[[record]]
compound = "O=S1(=O)OCCOS(=O)(=O)C1(F)Br"
measurement_target = "SK-MEL-28 melanoma"
property = "TGI"
result = "> 100 µM"

[[record]]
compound = "CC(=O)C1C(=O)C(=O)N(c2cccc([N+](=O)[O-])c2)C1=O (stereo not given)"
measurement_target = "SK-MEL-28 melanoma"
property = "TGI"
result = "> 100 µM"


Entry CC1=NN(C(=O)c2ccncc2)C(=O)C1 needs its TGI filled in; supply it.
> 100 µM
